The following binders are listed with their measured Optical Density (OD) values.
target: T1, human CD1a protein (pool B) (human, UniProt P06126 18-295, limits assumed); assay: ELISA, 3.16 µg/ml antibody
T1 construct: Recombinant protein of the ELISA (coated) and the Biacore T200 titration; whole entry named; also called human CD1a pool B; full length CD1a
T1 sequence (P06126 18-295 limits assumed): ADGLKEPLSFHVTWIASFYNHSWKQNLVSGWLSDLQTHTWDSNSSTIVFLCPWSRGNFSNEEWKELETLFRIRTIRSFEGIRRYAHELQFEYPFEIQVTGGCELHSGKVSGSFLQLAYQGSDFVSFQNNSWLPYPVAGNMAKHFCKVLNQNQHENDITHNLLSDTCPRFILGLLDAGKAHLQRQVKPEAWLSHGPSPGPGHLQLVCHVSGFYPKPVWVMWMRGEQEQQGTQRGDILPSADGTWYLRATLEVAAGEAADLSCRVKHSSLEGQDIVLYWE
Your answer is read as OD, so omit the unit and give the number.

Binder	Measure name	Unit descriptor	Measured value
77A (VR11851) (antibody, V domains shown, also called OX77a; antibody 77a) VH: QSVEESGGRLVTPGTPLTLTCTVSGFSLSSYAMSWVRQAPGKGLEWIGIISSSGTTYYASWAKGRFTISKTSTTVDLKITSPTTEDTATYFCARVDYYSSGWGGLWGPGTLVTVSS VL: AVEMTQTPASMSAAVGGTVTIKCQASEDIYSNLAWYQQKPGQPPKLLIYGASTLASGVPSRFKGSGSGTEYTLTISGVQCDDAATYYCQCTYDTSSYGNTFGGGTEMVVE	Optical Density (OD)	OD	1.33
110 (VR12112) (antibody, V domains shown, also called OX110; antibody 110) VH: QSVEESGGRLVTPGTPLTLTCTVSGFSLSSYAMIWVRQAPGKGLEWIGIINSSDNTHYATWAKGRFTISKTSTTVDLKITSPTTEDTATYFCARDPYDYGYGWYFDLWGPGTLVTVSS VL: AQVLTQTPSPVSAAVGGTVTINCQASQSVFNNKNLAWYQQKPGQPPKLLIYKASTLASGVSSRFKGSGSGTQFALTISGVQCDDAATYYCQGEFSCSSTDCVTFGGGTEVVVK	Optical Density (OD)	OD	1.27
116 (VR12117) (antibody, V domains shown, also called OX116) VH: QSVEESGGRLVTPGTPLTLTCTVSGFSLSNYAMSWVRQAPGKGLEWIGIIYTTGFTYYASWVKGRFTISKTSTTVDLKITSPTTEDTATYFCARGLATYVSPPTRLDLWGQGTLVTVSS VL: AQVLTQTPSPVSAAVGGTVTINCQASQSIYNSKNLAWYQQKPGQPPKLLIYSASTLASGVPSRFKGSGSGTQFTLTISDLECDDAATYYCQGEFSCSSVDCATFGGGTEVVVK	Optical Density (OD)	OD	1.15

Please examine the following record next.
// returns reported Optical Density (OD) for input 111 (VR12113) (antibody, V domains shown, also called OX111) VH: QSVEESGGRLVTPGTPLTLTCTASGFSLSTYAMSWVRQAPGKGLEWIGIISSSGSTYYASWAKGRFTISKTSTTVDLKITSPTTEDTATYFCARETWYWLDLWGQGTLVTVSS VL: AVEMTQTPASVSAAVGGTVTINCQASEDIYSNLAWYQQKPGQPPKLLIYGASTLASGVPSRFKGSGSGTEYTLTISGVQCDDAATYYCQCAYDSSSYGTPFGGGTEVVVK
1.13

Ref: patent US20250289893A1
